- system: hCA VB (Homo sapiens)
- Sequence (Q9Y2D0 34-317): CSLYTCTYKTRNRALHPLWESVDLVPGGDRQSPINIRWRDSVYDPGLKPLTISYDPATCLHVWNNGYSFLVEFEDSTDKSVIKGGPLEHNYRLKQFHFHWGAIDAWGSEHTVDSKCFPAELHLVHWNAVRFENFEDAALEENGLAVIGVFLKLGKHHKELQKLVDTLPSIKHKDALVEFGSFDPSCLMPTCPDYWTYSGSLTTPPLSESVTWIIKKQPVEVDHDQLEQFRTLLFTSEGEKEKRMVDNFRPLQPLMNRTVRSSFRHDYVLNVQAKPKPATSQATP
- procedure.summary: Stopped-flow CO2 hydrase assay, hCA VB
- test.parameters: read-out: KI hCA VB; stopped-flow CO2 hydrase assay; mean from three assays, errors ±5–10%
value.type: Ki (nM)
// note: answer is a bare numeric in nM

get_value(item= "Cc1cn([C@H]2C[C@H](n3cc(CNC(=O)c4ccc(S(N)(=O)=O)cc4)nn3)[C@@H](CO)O2)c(=O)[nH]c1=O" , readout=Ki) returns 29

get_value(item= Cc1cn([C@H]2C[C@H](n3cc(COc4ccc5oc(=O)ccc5c4)nn3)[C@@H](CO)O2)c(=O)[nH]c1=O [Compound 15b] , readout=Ki) returns 161

get_value(item= Cc1cn([C@H]2C[C@H](n3cc(COc4ccc5c(c4)C=CS(=O)(=O)O5)nn3)[C@@H](CO)O2)c(=O)[nH]c1=O [Compound 20b] , readout=Ki) returns 54.6

====

- system: hCA IX (Homo sapiens)
- procedure.summary: Stopped-flow CO2 hydrase assay, hCA IX
value.type: Ki

get_value(item= Cc1cn([C@H]2C[C@H](n3cc(CN(CCc4ccc(S(N)(=O)=O)cc4)Cc4cn([C@H]5C[C@H](n6cc(C)c(=O)[nH]c6=O)O[C@@H]5CO)nn4)nn3)[C@@H](CO)O2)c(=O)[nH]c1=O [Compound 5b] , readout=Ki) returns < 10000 nM

get_value(item= Cc1cn([C@H]2C[C@H](n3cc(CNC(=O)c4ccc(S(N)(=O)=O)cc4)nn3)[C@@H](CO)O2)c(=O)[nH]c1=O [Compound 8b] , readout=Ki) returns < 100 nM

get_value(item= Cc1cn([C@H]2C[C@H](n3cc(CNC(=O)Nc4ccc(S(N)(=O)=O)cc4)nn3)[C@@H](CO)O2)c(=O)[nH]c1=O [Compound 10b] , readout=Ki) returns < 1000 nM

get_value(item= Cc1cn([C@H]2C[C@H](n3cc(CN(Cc4cn([C@H]5C[C@H](n6cc(C)c(=O)[nH]c6=O)O[C@@H]5CO)nn4)c4ccc(S(N)(=O)=O)cc4)nn3)[C@@H](CO)O2)c(=O)[nH]c1=O [Compound 4d] , readout=Ki) returns < 10000 nM

get_value(item= Cc1cn([C@H]2C[C@H](n3cc(CSc4ccc(S(N)(=O)=O)cc4)nn3)[C@@H](CO)O2)c(=O)[nH]c1=O [Compound 2b] , readout=Ki) returns < 1000 nM

====

- system: UniProtKB Q9Y2D0
value.type: pKi
Please express pKi as -log10 of the molar concentration.

get_value(item= "Cc1cn([C@H]2C[C@H](n3cc(COc4ccc(S(N)(=O)=O)cc4)nn3)[C@@H](CO)O2)c(=O)[nH]c1=O" , readout=pKi) returns 6.85

get_value(item= Cc1cn([C@H]2C[C@H](n3cc(C[Se]c4ccc(NC(=S)Nc5cccc(S(N)(=O)=O)c5)cc4)nn3)[C@@H](CO)O2)c(=O)[nH]c1=O [Compound 11b] , readout=pKi) returns 7.35

get_value(item= "Cc1cn([C@H]2C[C@H](n3cc(COC(=O)c4ccc(S(N)(=O)=O)cc4)nn3)[C@@H](CO)O2)c(=O)[nH]c1=O" , readout=pKi) returns 7.27

====

- system: telomerase (Homo sapiens)
- Construct: endogenous in cells; host or cells: PC3 (human prostate cancer, ATCC)
- Sequence (O14746 whole entry): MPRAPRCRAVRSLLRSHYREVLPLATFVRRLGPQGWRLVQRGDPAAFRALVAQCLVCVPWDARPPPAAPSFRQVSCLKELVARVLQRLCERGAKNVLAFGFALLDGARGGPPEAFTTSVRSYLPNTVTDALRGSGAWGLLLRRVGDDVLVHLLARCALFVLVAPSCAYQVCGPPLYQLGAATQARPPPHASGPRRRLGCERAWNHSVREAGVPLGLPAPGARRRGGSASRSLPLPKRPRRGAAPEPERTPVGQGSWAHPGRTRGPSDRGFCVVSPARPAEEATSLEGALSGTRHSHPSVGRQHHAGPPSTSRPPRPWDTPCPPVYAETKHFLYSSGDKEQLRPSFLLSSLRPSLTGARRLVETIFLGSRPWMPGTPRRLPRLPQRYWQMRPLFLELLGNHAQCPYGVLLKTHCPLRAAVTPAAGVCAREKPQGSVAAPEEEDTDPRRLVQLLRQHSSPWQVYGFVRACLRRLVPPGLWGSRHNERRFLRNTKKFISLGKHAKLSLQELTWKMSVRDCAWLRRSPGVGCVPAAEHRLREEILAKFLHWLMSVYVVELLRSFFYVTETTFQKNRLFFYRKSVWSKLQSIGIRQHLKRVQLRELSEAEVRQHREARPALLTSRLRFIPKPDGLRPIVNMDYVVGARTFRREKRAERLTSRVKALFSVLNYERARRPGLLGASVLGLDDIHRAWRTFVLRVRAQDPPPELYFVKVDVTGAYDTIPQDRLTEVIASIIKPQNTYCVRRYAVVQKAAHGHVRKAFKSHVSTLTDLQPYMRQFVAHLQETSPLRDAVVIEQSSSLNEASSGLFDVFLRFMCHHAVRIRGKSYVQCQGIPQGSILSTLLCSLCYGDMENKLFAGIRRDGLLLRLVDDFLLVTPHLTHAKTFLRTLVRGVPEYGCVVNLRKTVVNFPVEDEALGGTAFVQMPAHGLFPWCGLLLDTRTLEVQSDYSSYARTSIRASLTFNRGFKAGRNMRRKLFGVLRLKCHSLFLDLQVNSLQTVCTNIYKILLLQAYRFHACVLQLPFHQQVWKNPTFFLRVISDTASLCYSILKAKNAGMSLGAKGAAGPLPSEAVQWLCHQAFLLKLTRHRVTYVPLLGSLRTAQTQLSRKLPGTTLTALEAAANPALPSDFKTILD
- procedure.summary: Telomerase activity in PC3 cell lysates (TRAP / RTQ-TRAP, cell-free)
- Type: biochemical
- test.parameters: read-out: IC50 telomerase inhibition
value.type: pIC50
Please express pIC50 as -log10 of the molar concentration.

get_value(item= Cc1cn([C@H]2C[C@H](n3cc(C[Se]c4ccc(NC(=S)Nc5cccc(S(N)(=O)=O)c5)cc4)nn3)[C@@H](CO)O2)c(=O)[nH]c1=O [Compound 11b] , readout=pIC50) returns 5.25
